Recorded values, source the supplement of paper PMC13380429.

Listing of entries alongside the reported drug sensitivity score.
Tested on: HepG2
protocolText: drug sensitivity score (DSS) for viability; higher = more toxic; extreme values may be limits of the assay
conditions: 72 h
Number only, please.

Worked examples follow.
CN1C(=O)N(c2cc(Cl)cc(Cl)c2)C(=O)[C@@]1(C)Cc1ccc(Br)cc1 | 0
O=C(CCCN1CCC(n2c(=O)[nH]c3ccccc32)CC1)c1ccc(F)cc1 | 0
c1cnc(SCc2cccnc2)nc1 | 0
CCOC(=O)c1ccc(C#Cc2ccc3c(c2)C(C)(C)CCS3)nc1 | 0

# evaluate next
For the compound "O=C(O)c1ccc(N2N=C(Cc3ccccc3)/C(=C\c3ccc(-c4ccccc4F)o3)C2=O)cc1" , what drug sensitivity score is on record? 0

====

Tested on: Calu-3
protocolText: cell viability relative to DMSO; higher = less toxic
conditions: 72 h; 10 nM
Documented cell viability across a set of compounds
Entry rule: numbers only, all in %.

# count of solved cases: 6
CSCC[C@H](NC(=O)[C@H](CC(C)C)NC(=O)CNC(=O)[C@H](Cc1ccccc1)NC(=O)[C@H](Cc1ccccc1)NC(=O)[C@H](CCC(N)=O)NC(=O)[C@H](CCC(N)=O)NC(=O)[C@@H]1CCCN1C(=O)[C@H](CCCCN)NC(=O)[C@@H]1CCCN1C(=O)[C@@H](N)CCCN=C(N)N)C(N)=O [substance-P] | 98.4
Clc1ccc(C2(c3ccc(-c4cn[nH]c4)cc3)CCNCC2)cc1 [AT7867] | 98.7
O=c1cc(N2CCOCC2)oc2c(-c3cccc4c3sc3ccccc34)cccc12 [NU-7441] | 110
CC(C)N1CCN(c2ccc(C(=O)c3c(-c4ccc(O)cc4)sc4cc(O)ccc34)cc2)CC1 [Y-134] | 96.2
Cc1[nH]cnc1CN1CCc2c(c3ccccc3n2C)C1=O [alosetron] | 93.5
Cn1c2cc([S+](C)[O-])sc2c2cnn(Cc3cccc(N)c3)c(=O)c21 (stereo not given) [TEPP-46] | 97.6

Look up cell viability: CCCN[C@@H]1CCc2c(OC)cccc2[C@@H]1C [AJ76-(+)] 95.9

Which cell viability is reported for this compound? "C[C@H](NC[C@H](O)CP(=O)(O)CC1CCCCC1)c1ccc(Cl)c(Cl)c1" 104

====

Test system: Calu-3
protocolText: cell viability relative to DMSO; higher = less toxic
conditions: 72 h; 100 nM
measuredAttribute: cell viability (%)
Enter your answer as a number in %; do not include the unit.

Examples with their reported cell viability follow.
CC(C)CCNc1ncccc1C(=O)N1CCN(Cc2ccccc2)CC1 | 92.5
CN1Cc2ccccc2[C@@H]2c3cccc4[nH]cc(c34)C[C@H]21 | 93.8
N=C(N)NCCC[C@H](NC(=O)c1sccc1NS(=O)(=O)c1cccc2nsnc12)C(=O)O | 106
O=C(/C=C/c1ccc(O)c(O)c1)O[C@H](Cc1ccc(O)c(O)c1)C(=O)O | 101
O=C(O)c1ccc(N2N=C(Cc3ccccc3)/C(=C\c3ccc(-c4ccccc4F)o3)C2=O)cc1 | 101
CC(C)=CCC/C(C)=C/CC/C(C)=C/CSc1ccccc1C(=O)O | 101

I'd like to know its cell viability. The compound in question is CC=CC1=C(C(=O)O)N2C(=O)[C@@H](NC(=O)[C@H](N)c3ccc(O)cc3)[C@H]2SC1 (mixture of isomers) 81

I'd like to know its cell viability. The compound in question is "CCOc1ccc(S(=O)(=O)O)c2cccnc12" 99

Reported cell viability for COC(=O)CCC(=O)CN [methyl-aminolevulinate] : what is it? 98
